Target: Alpha-1D adrenergic receptor (Rattus norvegicus, UniProt P23944)
Sequence (P23944 whole entry): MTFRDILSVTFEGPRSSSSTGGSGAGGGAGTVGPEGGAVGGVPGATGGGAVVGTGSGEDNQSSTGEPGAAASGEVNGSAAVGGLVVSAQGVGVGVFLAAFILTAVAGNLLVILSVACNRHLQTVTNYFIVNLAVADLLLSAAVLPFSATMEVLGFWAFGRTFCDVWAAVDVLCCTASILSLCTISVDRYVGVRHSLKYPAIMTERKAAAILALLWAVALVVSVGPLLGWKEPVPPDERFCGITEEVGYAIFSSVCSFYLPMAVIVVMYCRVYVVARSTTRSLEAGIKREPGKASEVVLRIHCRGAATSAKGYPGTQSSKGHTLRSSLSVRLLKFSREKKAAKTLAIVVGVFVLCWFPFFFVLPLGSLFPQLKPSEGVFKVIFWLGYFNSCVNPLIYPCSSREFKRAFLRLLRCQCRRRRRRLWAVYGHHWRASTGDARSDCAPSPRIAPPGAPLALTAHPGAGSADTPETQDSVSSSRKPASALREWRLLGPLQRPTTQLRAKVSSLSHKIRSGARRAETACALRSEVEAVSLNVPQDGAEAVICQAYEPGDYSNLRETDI
Experiment: Antagonist activity against adrenergic Alpha-1D receptor in rat thoracic aorta assessed as noradrenaline-induced response
Type: functional, tissue-based
Details: read-out: pA2 (converted)
MEASUREMENT_LABEL: Kb (nM)
Numbers only here, please. The scale is nM.

- SMILES_REPR: "COc1cc2nc(N3CCN(C(=O)c4ccc(Br)o4)[C@H]4CCCC[C@H]43)nc(N)c2cc1OC"
  EXPERIMENTAL_TARGET: "Alpha-1D adrenergic receptor (Rattus norvegicus, UniProt P23944)"
  Kb / nM: 58.9
- SMILES_REPR: "COc1ccc(C(=O)N2CCN(c3nc(N)c4cc(OC)c(OC)cc4n3)[C@@H]3CCCC[C@@H]32)o1"
  EXPERIMENTAL_TARGET: "Alpha-1D adrenergic receptor (Rattus norvegicus, UniProt P23944)"
  Kb / nM: 89.1
- SMILES_REPR: "COc1cc2nc(N3CCN(C(=O)c4ccc(C)o4)[C@H]4CCCC[C@H]43)nc(N)c2cc1OC"
  EXPERIMENTAL_TARGET: "Alpha-1D adrenergic receptor (Rattus norvegicus, UniProt P23944)"
  Kb / nM: 91.2
- SMILES_REPR: "COc1cc2nc(N3CCN(C(=O)c4cccs4)[C@H]4CCCC[C@H]43)nc(N)c2cc1OC"
  EXPERIMENTAL_TARGET: "Alpha-1D adrenergic receptor (Rattus norvegicus, UniProt P23944)"
  Kb / nM: 35.5

Moving on to another compound below.
Recorded Kb for COc1cc2nc(N3CCN(C(=O)c4ccc(C(C)=O)o4)[C@H]4CCCC[C@H]43)nc(N)c2cc1OC , please? 214

----------
Biological target: Alpha-1A adrenergic receptor (Rattus norvegicus, UniProt P43140)
Sequence (P43140 whole entry): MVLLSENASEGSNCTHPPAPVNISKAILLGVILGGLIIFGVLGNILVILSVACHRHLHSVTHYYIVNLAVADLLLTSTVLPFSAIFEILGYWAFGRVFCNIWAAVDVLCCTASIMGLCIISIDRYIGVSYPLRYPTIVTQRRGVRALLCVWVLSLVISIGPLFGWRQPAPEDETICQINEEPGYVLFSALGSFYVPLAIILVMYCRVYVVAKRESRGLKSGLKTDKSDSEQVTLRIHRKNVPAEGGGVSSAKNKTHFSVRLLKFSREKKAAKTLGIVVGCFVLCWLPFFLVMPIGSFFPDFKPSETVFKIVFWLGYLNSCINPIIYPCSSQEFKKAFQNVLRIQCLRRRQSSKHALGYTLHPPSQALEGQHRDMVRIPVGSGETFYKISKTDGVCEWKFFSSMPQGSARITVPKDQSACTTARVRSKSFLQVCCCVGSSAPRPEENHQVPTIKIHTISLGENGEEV
Test: Antagonist activity against adrenergic alpha-1A receptor in rat prostatic vas deferens assessed as inhibition of noradrenaline-induced contraction
Assay type: functional, tissue-based
Details: read-out: pA2 (converted)
MEASUREMENT_LABEL: Kb
Quick note: number first, unit second.

- SMILES_REPR: "COc1ccc(C(=O)N2CCN(c3nc(N)c4cc(OC)c(OC)cc4n3)[C@@H]3CCCC[C@@H]32)o1"
  ASSAY_RESULT: "141 nM"
- SMILES_REPR: "COc1cc2nc(N3CCN(C(=O)c4ccco4)[C@H]4CCCC[C@H]43)nc(N)c2cc1OC"
  ASSAY_RESULT: "17 nM"
- SMILES_REPR: "COc1cc2nc(N3CCN(C(=O)c4ccccc4)[C@H]4CCCC[C@H]43)nc(N)c2cc1OC"
  ASSAY_RESULT: "30.9 nM"

Recorded Kb for COc1cc2nc(N3CCN(C(=O)c4ccc(C)o4)[C@H]4CCCC[C@H]43)nc(N)c2cc1OC , please? 331 nM

----------
Target: Alpha adrenergic receptor 1A and 1D (Rattus norvegicus) (UniProt P23944+P43140)
Test: Selectivity ratio for rat adrenergic alpha-1A receptor over rat adrenergic Alpha-1D receptor
Assay type: functional
MEASUREMENT_LABEL: Selectivity ratio
Field format: numeric only.

Worked examples, 7 compounds total:
- SMILES_REPR: "COc1cc2nc(N3CCN(C(=O)c4ccccc4)[C@H]4CCCC[C@H]43)nc(N)c2cc1OC"
  MEASUREMENT_LABEL: "Selectivity ratio"
  ASSAY_RESULT: 2
- SMILES_REPR: "COc1cc2nc(N3CCN(C(=O)c4cccs4)[C@H]4CCCC[C@H]43)nc(N)c2cc1OC"
  MEASUREMENT_LABEL: "Selectivity ratio"
  ASSAY_RESULT: 1
- SMILES_REPR: "COc1cc2nc(N3CCN(C(=O)c4ccccn4)[C@H]4CCCC[C@H]43)nc(N)c2cc1OC"
  MEASUREMENT_LABEL: "Selectivity ratio"
  ASSAY_RESULT: 1
- SMILES_REPR: "COc1cc2nc(N3CCN(C(=O)c4ccc(C)o4)[C@H]4CCCC[C@H]43)nc(N)c2cc1OC"
  MEASUREMENT_LABEL: "Selectivity ratio"
  ASSAY_RESULT: 4
- SMILES_REPR: "COc1cc2nc(N3CCN(C(=O)c4ccc(Br)o4)[C@H]4CCCC[C@H]43)nc(N)c2cc1OC"
  MEASUREMENT_LABEL: "Selectivity ratio"
  ASSAY_RESULT: 0.5
- SMILES_REPR: "COc1cc2nc(N3CCN(C(=O)c4ccc[nH]4)[C@H]4CCCC[C@H]43)nc(N)c2cc1OC"
  MEASUREMENT_LABEL: "Selectivity ratio"
  ASSAY_RESULT: 2
- SMILES_REPR: "COc1ccc(C(=O)N2CCN(c3nc(N)c4cc(OC)c(OC)cc4n3)[C@@H]3CCCC[C@@H]32)o1"
  MEASUREMENT_LABEL: "Selectivity ratio"
  ASSAY_RESULT: 2

Moving on to another compound below.
Recorded Selectivity ratio for COc1cc2nc(N3CCN(C(=O)c4ccc(C(C)=O)o4)[C@H]4CCCC[C@H]43)nc(N)c2cc1OC , please? 0.4

----------
Species on record: Rattus norvegicus
Assay: Selectivity ratio for rat adrenergic Alpha-1D receptor over rat adrenergic Alpha-1B receptor
Type: functional
Selectivity ratio: recorded values

Worked examples, 5 compounds total:
- SMILES_REPR: "COc1cc2nc(N3CCN(C(=O)c4ccc[nH]4)[C@H]4CCCC[C@H]43)nc(N)c2cc1OC"
  Selectivity ratio: 5
- SMILES_REPR: "COc1cc2nc(N3CCN(C(=O)c4ccccn4)[C@H]4CCCC[C@H]43)nc(N)c2cc1OC"
  Selectivity ratio: 33
- SMILES_REPR: "COc1cc2nc(N3CCN(C(=O)c4ccc(C(C)=O)o4)[C@H]4CCCC[C@H]43)nc(N)c2cc1OC"
  Selectivity ratio: 29
- SMILES_REPR: "COc1ccc(C(=O)N2CCN(c3nc(N)c4cc(OC)c(OC)cc4n3)[C@@H]3CCCC[C@@H]32)o1"
  Selectivity ratio: 28
- SMILES_REPR: "COc1cc2nc(N3CCN(C(=O)c4cccs4)[C@H]4CCCC[C@H]43)nc(N)c2cc1OC"
  Selectivity ratio: 21

Recorded Selectivity ratio for COc1cc2nc(N3CCN(C(=O)c4ccc(Br)o4)[C@H]4CCCC[C@H]43)nc(N)c2cc1OC , please? 19

Would you kindly repeat that for COc1cc2nc(N3CCN(C(=O)c4ccc(C)o4)[C@H]4CCCC[C@H]43)nc(N)c2cc1OC ? 41

Would you kindly repeat that for COc1cc2nc(N3CCN(C(=O)c4ccccc4)[C@H]4CCCC[C@H]43)nc(N)c2cc1OC ? 12

----------
Target: Alpha-1B adrenergic receptor (Rattus norvegicus)
Test: Antagonist activity against adrenergic Alpha-1B receptor in rat spleen assessed as inhibition of phenylephrine-induced response
Type: functional, tissue-based
pKb: recorded values

- SMILES_REPR: "COc1cc2nc(N3CCN(C(=O)c4ccc(C(C)=O)o4)[C@H]4CCCC[C@H]43)nc(N)c2cc1OC"
  ASSAY_RESULT: 8.13
- SMILES_REPR: "COc1cc2nc(N3CCN(C(=O)c4cccs4)[C@H]4CCCC[C@H]43)nc(N)c2cc1OC"
  ASSAY_RESULT: 8.78
- SMILES_REPR: "COc1ccc(C(=O)N2CCN(c3nc(N)c4cc(OC)c(OC)cc4n3)[C@@H]3CCCC[C@@H]32)o1"
  ASSAY_RESULT: 8.5

Recorded pKb for COc1cc2nc(N3CCN(C(=O)c4ccccc4)[C@H]4CCCC[C@H]43)nc(N)c2cc1OC , please? 8.83

Would you kindly repeat that for COc1cc2nc(N3CCN(C(=O)c4ccc(Br)o4)[C@H]4CCCC[C@H]43)nc(N)c2cc1OC ? 8.5
